# Target System: hGPR17L (Homo sapiens)
# Sequence (Q13304 whole entry): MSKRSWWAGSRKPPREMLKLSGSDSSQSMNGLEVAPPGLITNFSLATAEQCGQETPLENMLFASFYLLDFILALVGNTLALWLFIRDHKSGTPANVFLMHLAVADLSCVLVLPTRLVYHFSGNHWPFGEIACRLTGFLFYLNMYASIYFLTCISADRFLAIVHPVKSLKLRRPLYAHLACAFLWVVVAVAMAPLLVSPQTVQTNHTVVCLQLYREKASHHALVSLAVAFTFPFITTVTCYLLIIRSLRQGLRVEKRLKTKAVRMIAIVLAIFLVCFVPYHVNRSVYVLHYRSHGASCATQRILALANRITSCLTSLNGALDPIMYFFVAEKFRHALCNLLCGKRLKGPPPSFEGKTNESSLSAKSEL
# Assay Info: Calcium mobilization assay
# Format: cell-based
# Applied Conditions: 1321-N1, read-out: % Efficacy Avg ± SEM
Assign labels as follows, please: MET for Emax below 70%; NOT MET for Emax equal to or exceeding 70%.

{"columns": ["Compound", "Target System", "Class Assignment"],
 "data": [
  ["COc1ccc(C(=O)NC2CCCc3c2[nH]c2c(Cl)cccc32)cc1S(C)(=O)=O (centres unmarked)", "hGPR17L (Homo sapiens)", "MET"],
  ["COc1ccc(C(=O)NC2CCCc3c2[nH]c2c(Cl)cccc32)cc1C (centres unmarked)", "hGPR17L (Homo sapiens)", "NOT MET"],
  ["O=C(NC1CCCc2c1[nH]c1c(Cl)cccc21)C(NS(=O)(=O)c1cccs1)c1ccccc1 (centres unmarked)", "hGPR17L (Homo sapiens)", "NOT MET"],
  ["COc1cc(OC)cc(C(=O)NC2CCCc3c2[nH]c2c(Br)cccc32)c1 (centres unmarked)", "hGPR17L (Homo sapiens)", "MET"],
  ["O=C(NC1CCCc2c1[nH]c1c(Cl)cccc21)c1c(F)cc([N+](=O)[O-])cc1F (centres unmarked)", "hGPR17L (Homo sapiens)", "MET"],
  ["O=C(NC1CCCc2c1[nH]c1c(Cl)cccc21)c1ccc([N+](=O)[O-])c([N+](=O)[O-])c1 (centres unmarked)", "hGPR17L (Homo sapiens)", "NOT MET"],
  ["Cc1cc(C(=O)NC2CCCc3c2[nH]c2c(Cl)cccc32)ccc1Br (centres unmarked)", "hGPR17L (Homo sapiens)", "MET"]
]}
